Source of measurements: PubChem BioAssay

Recorded inhibition values for a group of molecules are listed next.
assay: polyglutamine-triggered caspase-3 activation inhibitors, cell-based (AID 1583); details: polyglutamine-induced caspase-3 activation, cell assay; stronger effect = higher value;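 tested at 10 µM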

{"molecule": "C[C@H](CCC(=O)O)[C@H]1CCC2C3C(=O)CC4CC(=O)CC[C@]4(C)C3CC(=O)[C@@]21C (some centres not stated)", "units-symbol": "%", "inhibition": 12.1}
{"molecule": "CO[C@@]12[C@@H]3NC3CN1C1=C(C(=O)C(N)=C(C)C1=O)[C@@H]2COC(N)=O (some centres not stated)", "units-symbol": "%", "inhibition": -29.8}
{"molecule": "NCC[C@@H](O)C(=O)N[C@@H]1C[C@H](N)[C@@H](O[C@H]2O[C@H](CN)[C@@H](O)[C@H](O)[C@H]2O)[C@H](O)[C@H]1O[C@H]1O[C@H](CO)[C@@H](O)[C@H](N)C1O (some centres not stated)", "units-symbol": "%", "inhibition": -41.9}
{"molecule": "COC(=O)C1[C@H]2C[C@H]3c4[nH]c5ccccc5c4CCN3C[C@@H]2CC[C@@H]1O (some centres not stated)", "units-symbol": "%", "inhibition": -35.1}
{"molecule": "C[C@H](CCC(=O)O)[C@H]1CCC2C3C(CC[C@@]21C)[C@@]1(C)CC[C@@H](O)C[C@H]1C[C@@H]3O (some centres not stated)", "units-symbol": "%", "inhibition": 20.5}
{"molecule": "NC(Cc1ccc(F)cc1)C(=O)O (configuration not stated)", "units-symbol": "%", "inhibition": 10.4}
{"molecule": "CN[C@@H]1C(OC2[C@H](O[C@H]3[C@H](O)[C@@H](O)[C@H](N=C(N)N)[C@@H](O)[C@@H]3N=C(N)N)OC(C)[C@]2(O)CO)OC(CO)C(O)C1O (some centres not stated)", "units-symbol": "%", "inhibition": -7.45}

====

test: growth inhibition of BT084 medulloblastoma cells, cell-based, ICGC_MB145, cisplatin and BGB IC40 combos (AID 1671461); settings: drug combinations, measured here: BGB IC40 combination 0.05 uM, at 0.05 µM, stronger effect = higher value;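 also: cells exposed to drugs for 96 hours; 0% = vehicle DMSO and 100% = high DMSO full killing control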

{"compound": "O=C(Nc1ccccc1)c1ccccc1O", "units-symbol": "%", "inhibition": 23}
{"compound": "CO[C@H]1/C=C/O[C@@]2(C)Oc3c(C)c(O)c4c(O)c(c(C=NN5CCN(C)CC5)c(O)c4c3C2=O)NC(=O)/C(C)=C\\C=C\\[C@H](C)[C@H](O)[C@@H](C)[C@@H](O)[C@@H](C)[C@H](OC(C)=O)[C@@H]1C", "units-symbol": "%", "inhibition": -6.21}
{"compound": "NC(=O)c1ncn(C2OC(CO)C(O)C2O)n1 (stereo not given)", "units-symbol": "%", "inhibition": 25.7}
{"compound": "O=c1[nH]c(-c2ccc(C(F)(F)F)cc2)nc2c1CSCC2", "units-symbol": "%", "inhibition": 7.96}
{"compound": "CC(C)N=c1cc2n(-c3ccc(Cl)cc3)c3ccccc3nc-2cc1Nc1ccc(Cl)cc1", "units-symbol": "%", "inhibition": 17}

====

test system: F380Y/beta4; assay: modulators of BK channel variants, profiling panel, selectivity assay, cell-based, U2OS BacMam, thallium flux, beta subunits (AID 1259406); conditions: at 30 µM;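 also: initial slope of Thallos dye fluorescence rise after thallium is added; log ratio against the mean of 0.3% DMSO vehicle wells on the same plate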
# thresholds on log fold change Tl+ flux define classes: low bracket (below -0.004), middle bracket (-0.004 to below 0.02), high bracket (0.02 or more)

{"compound": "CC(C)(C)c1cc(-c2nc(-c3ccc(C(F)(F)F)cc3)no2)n(Cc2ccccc2)n1", "label": "middle bracket"}
{"compound": "COc1ccnc(CS(=O)c2nc3cc(OC(F)F)ccc3[nH]2)c1OC (stereo not given)", "label": "low bracket"}
{"compound": "COC(=O)c1cc(C)nc(Sc2n[nH]c(-c3cc(Cl)cc(Cl)c3)n2)n1", "label": "high bracket"}
{"compound": "CCOC(=O)[C@@H](CCc1ccccc1)N[C@@H](C)C(=O)N1CCC[C@H]1C(=O)O", "label": "high bracket"}
{"compound": "CCCCc1nc(Cl)c(CO)n1Cc1ccc(-c2ccccc2-c2nnn[nH]2)cc1", "label": "middle bracket"}
{"compound": "CCOC(=O)Cn1c(-c2c(Cl)cccc2Cl)noc1=O", "label": "middle bracket"}
{"compound": "Cc1ccc(C(=O)CC(=CC(=C(C#N)c2ccc([N+](=O)[O-])cc2)c2ccc(C)cc2)c2ccccc2)cc1", "label": "low bracket"}
{"compound": "Cc1cnc(C(=O)NCCc2ccc(S(=O)(=O)NC(=O)NC3CCCCC3)cc2)cn1", "label": "high bracket"}
{"compound": "COC(=O)c1cc(-c2nc(-c3ccc(Cl)cc3Cl)cs2)c(SC)s1", "label": "middle bracket"}
{"compound": "CC(C)n1c(SCC(=O)c2ccccc2)nc2cc(Cl)ccc21", "label": "low bracket"}
